Origin of values: patent US11130741B2

- Tested on: E. coli RNase P RNA, M1 RNA
- procedure-text: Inhibition of bacterial RNase P activity, IC50 determination (cleavage of pATSerUG by M1 RNA)
- Type: biochemical
- condition-label: NI = No inhibition
endpoint-label: IC50 (µM)
Just the number in µM, nothing appended.

{"columns": ["compound", "endpoint-label", "value-measured"],
 "data": [
  ["N[C@@H]1CCC[C@H](C(=O)Nc2cc(C(F)(F)F)cc3c2Nc2ccccc2S3)C1 [compound 125]", "IC50", 20],
  ["N[C@H]1CCC[C@@H](C(=O)Nc2cc(C(F)(F)F)cc3c2Nc2ccccc2S3)C1 [compound 118]", "IC50", 17],
  ["FC(F)(F)c1cc(NC2CCNCC2)cc2c1Nc1ccccc1S2 [compound 240]", "IC50", 62]
]}

Here's the next entry for you.
Lab book: IC50 of Cl.Cl.NCCN1CCC(Nc2cc(C(F)(F)F)cc3c2Nc2ccc(N4CCC(F)(F)C4)cc2S3)CC1 [compound 303, hydrochloride] noted as 9.7

---

The next entries give measured MIC for N. gonorrhoeae 612501.

{"columns": ["compound", "assayed-target", "MIC"],
 "data": [
  ["CN(C)CCCN1c2ccccc2Sc2cc(-c3cc4ccccc4[nH]3)ccc21", "N. gonorrhoeae 612501", "2 µg/mL"]
]}

Lab book: MIC of NC1CCCC(C(=O)Nc2cc(C(F)(F)F)cc3c2Nc2ccc(-c4cc5ccccc5[nH]4)cc2S3)C1 (centres unmarked) noted as 2 µg/mL

---

- Tested on: Escherichia coli (ATCC25922)
- procedure-text: MIC, broth microdilution (CLSI), Escherichia coli ATCC25922
- condition-label: ATCC25922, read-out: E. coli MIC, Table 15, NI = No inhibition
endpoint-label: log10(MIC) (log10 of the value in µg/mL)
Each number you see is log10 of MIC, and the unit inside the log is µg/mL.

Result for CCN(CC)c1ccc2c(c1)Sc1cc(C(F)(F)F)cc(NC3CCN(CCN)CC3)c1N2.Cl.Cl.Cl , tested on Escherichia coli (ATCC25922), log10(MIC): 0.60

Result for NCCN1CCC(Nc2cc(C(F)(F)F)cc3c2Nc2ccccc2O3)CC1 , tested on Escherichia coli (ATCC25922), log10(MIC): 1.70

Result for CN(C)C1CCN(c2ccc3c(c2)Sc2cc(C(F)(F)F)cc(NC4CCN(CCN)CC4)c2N3)CC1.Cl.Cl , tested on Escherichia coli (ATCC25922), log10(MIC): 2.11

---

- System: Staphylococcus aureus (ATCC25923)
- procedure-text: MIC, broth microdilution (CLSI), Staphylococcus aureus ATCC25923
- condition-label: ATCC25923, read-out: S. aureus ("Clinical") MIC
Labelling: MIC reported below 9 µg/mL becomes label 1; at or above becomes label 0.

Answered examples (7):
{"columns": ["compound", "assayed-target", "class-label"],
 "data": [
  ["CNCCN1CCC(Nc2cc(CN)cc3c2Nc2ccccc2S3)CC1.O=C(O)C(F)(F)F", "Staphylococcus aureus (ATCC25923)", "label 0"],
  ["CN(C)CCCN1c2ccccc2Sc2cc(C3CC3)ccc21", "Staphylococcus aureus (ATCC25923)", "label 0"],
  ["N#Cc1cc(NC(=O)C2CCCC(N)C2)c2c(c1)Sc1ccccc1N2 (stereo not drawn)", "Staphylococcus aureus (ATCC25923)", "label 0"],
  ["O=C(CC1CCC(F)(F)CC1)Nc1cc(C(F)(F)F)cc2c1Nc1ccccc1S2", "Staphylococcus aureus (ATCC25923)", "label 1"],
  ["CN(C)CCCN1c2ccccc2Sc2cc(Cl)cc(N)c21", "Staphylococcus aureus (ATCC25923)", "label 0"],
  ["NCCN1CCC(Nc2cc3c(c(C(F)(F)F)c2)Nc2ccccc2S3)CC1", "Staphylococcus aureus (ATCC25923)", "label 1"],
  ["Clc1cc(NC2CCNCC2)c2c(c1)Sc1ccccc1N2", "Staphylococcus aureus (ATCC25923)", "label 1"]
]}

Moving on to the next compound.
Request: Could you please tell me whether MIC recorded for NC1CC(C(=O)Nc2cc(C(F)(F)F)cc3c2Nc2ccccc2S3)C1 (stereo not drawn) is less than 9 µg/mL?
Response: label 0
